B1: F1*; the commonest letter at each place (parent)
chain: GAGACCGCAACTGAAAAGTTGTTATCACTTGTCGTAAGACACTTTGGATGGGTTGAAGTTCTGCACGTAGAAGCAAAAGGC

- Variants of: B1
- assay remarks: fraction ligated after 30 min (ligated reads / total reads); higher = more ligase activity
- measurement context: with F1*sub RNA substrate (template-directed ligation), 42 °C
parameter: fraction ligated
Numbers only.

These solved cases illustrate the format of a correct answer.
GAGACCGCAACTGAAAAGTTGTTATCACTTGTCTTAAGAGACTTTGGATGGGTTGAAGTTCTGCACGTAGAAGCAAAAGGC    0.811
GAGACCGCAACTGAAAAGTTGTTTTCACTTGTCATAAGACACTTTGGATGGGTTGAAGTTCTGCACGTAGAAGCAAAAGGC    0.789
GAGACCGCAACTGAAAAGTTGTTATCACTTGTCGTAAGACAGGTTGGATGGGTTGAAGTTCTGCACGTAGAAGCAAAAGGC    0.827
GAGACCGCAACTGAAAAGTTGTTATCACTTGTCGTAAGAAACTCTGGATGGGTTGAAGTTCTGCACGTAGAAGCAAAAGGC    0.794
GAGACCGCAACTGAAAAGTTGTTATCACTGCCGGTAACGGCCTTTGGATGGGTTGAAGTTCTGCACGTAGAAGCAAAAGGC    0.797
GAGACCGCAACTGAAAAGTTGTTATCACTTGTCGTAAGACACTTAGGCTGGGTTGAAGTTCTGCACGTAGAAGCAAAAGGC    0.23
GAGACCGCAACTGAAAAGTTGTTATCACATGTCTTAAGACACTTTGGATGGGTTGAAGTTCTGCACGTAGAAGCAAAAGGC    0.842
GAGACCGCAACTGAAAAGTTGTTATCACTTGTTGTAAGACCCTTTGGATGGGTTGAAGTTCTGCACGTAGAAGCAAAAGGC    0.789
GAGACCGCAACTGAAAAGTTGTCATCACTTGTCGTAAGACATTTTGGATGGGTTGAAGTTCTGCACGTAGAAGCAAAAGGC    0.804
GAGACCGCAACTGAAAAGTTGTTATCACTTGTCGTCAGACACTTGGGATGGGTTGAAGTTCTGCACGTAGAAGCAAAAGGC    0.362

Request: # input variant: GAGACCGCAACTGAAAAGTTGTTATGAATTGTCGTAAGACACTTTGGATGGGTTGAAGTTCTGCACGTAGAAGCAAAAGGC ; wanted: its fraction ligated
Result: 0.688
